assay: Nephrotoxicity in rat assessed as effect on distal tubule at 50 mg/kg by hematoxylin and eosin staining based assay; type: toxicity, organism-based; details: in vivo
EXPERIMENTAL_READOUT: Activity

Would you please look over these solved cases?
INSERT INTO assay_data (compound, experimental_value) VALUES
  ('Nc1nc(-c2ccccc2)cc(-c2cn(-c3ccccc3)nc2-c2ccc(OCc3ccccc3)cc2)n1', 'Toxic'),
  ('S=c1nc(-c2ccc(Cl)cc2)cc(-c2cn(-c3ccccc3)nc2-c2ccc(OCc3ccccc3)cc2)[nH]1', 'Toxic'),
  ('Clc1ccc(-c2cc(-c3cn(-c4ccccc4)nc3-c3ccc(OCc4ccccc4)cc3)on2)cc1', 'Toxic'),
  ('N#CC1=C(N)OC(c2ccccc2)=CC1c1cn(-c2ccccc2)nc1-c1ccc(OCc2ccccc2)cc1 (centres undefined)', 'Toxic'),
  ('Cc1ccc(-c2cc(C(F)(F)F)nn2-c2ccc(S(N)(=O)=O)cc2)cc1', 'Toxic'),
  ('O=C(/C=C/c1cn(-c2ccccc2)nc1-c1ccc(OCc2ccccc2)cc1)c1ccc(Cl)cc1', 'Non-Toxic'),
  ('COc1ccc2c(c1)c(CC(=O)O)c(C)n2C(=O)c1ccc(Cl)cc1', 'Toxic'),
  ('CC(=O)n1nc(-c2ccccc2)cc1-c1cn(-c2ccccc2)nc1-c1ccc(OCc2ccccc2)cc1', 'Toxic');

Q) Indicate its recorded Activity; the compound in question is O=C(/C=C/c1cn(-c2ccccc2)nc1-c1ccc(OCc2ccccc2)cc1)c1ccccc1
A) Non-Toxic

###

system: Rattus norvegicus; test: Anti-inflammatory activity in albino rat model of carrageenan-induced paw edema assessed as paw edema thickness at 100 mg/kg, po administered as single dose prior to carrageenan challenge measured after 8 hrs; format: functional
EXPERIMENTAL_READOUT: Activity (mm)
Numbers only, in mm.

Here is how some molecules turned out for Activity.
INSERT INTO measurements (molecule, experimental_readout, unit_label, experimental_value) VALUES
  ('S=c1nc(-c2ccccc2)cc(-c2cn(-c3ccccc3)nc2-c2ccc(OCc3ccccc3)cc2)[nH]1', 'Activity', 'mm', 2.19),
  ('NC(=S)n1nc(-c2ccccc2)cc1-c1cn(-c2ccccc2)nc1-c1ccc(OCc2ccccc2)cc1', 'Activity', 'mm', 2.2),
  ('Nc1nc(-c2ccc(Cl)cc2)cc(-c2cn(-c3ccccc3)nc2-c2ccc(OCc3ccccc3)cc2)n1', 'Activity', 'mm', 2.17),
  ('N#CC1=C(N)OC(c2ccc(Cl)cc2)=CC1c1cn(-c2ccccc2)nc1-c1ccc(OCc2ccccc2)cc1 (stereo not given)', 'Activity', 'mm', 2.31);

Next molecule, please.
Q) Specify reported Activity for the molecule shown: CC(=O)n1nc(-c2ccc(Cl)cc2)cc1-c1cn(-c2ccccc2)nc1-c1ccc(OCc2ccccc2)cc1
A) 2.17

###

assay: Ulcerogenic activity in rat assessed as effect on mucosal blood vessel at 50 mg/kg by hematoxylin and eosin staining based assay; type: toxicity, organism-based; details: in vivo
EXPERIMENTAL_READOUT: Activity

Study these solved cases before continuing.
INSERT INTO results (compound, experimental_readout, experimental_value) VALUES
  ('O=C(/C=C/c1cn(-c2ccccc2)nc1-c1ccc(OCc2ccccc2)cc1)c1ccccc1', 'Activity', 'Non-Toxic'),
  ('Cc1ccc(-c2cc(C(F)(F)F)nn2-c2ccc(S(N)(=O)=O)cc2)cc1 [CELECOXIB]', 'Activity', 'Toxic'),
  ('CC(=O)n1nc(-c2ccccc2)cc1-c1cn(-c2ccccc2)nc1-c1ccc(OCc2ccccc2)cc1', 'Activity', 'Toxic'),
  ('S=c1nc(-c2ccc(Cl)cc2)cc(-c2cn(-c3ccccc3)nc2-c2ccc(OCc3ccccc3)cc2)[nH]1', 'Activity', 'Toxic'),
  ('Nc1nc(-c2ccccc2)cc(-c2cn(-c3ccccc3)nc2-c2ccc(OCc3ccccc3)cc2)n1', 'Activity', 'Toxic');

Hey, quick one: what's Activity for each of these?
1. N#CC1=C(N)OC(c2ccccc2)=CC1c1cn(-c2ccccc2)nc1-c1ccc(OCc2ccccc2)cc1 (centres undefined)
2. O=C(/C=C/c1cn(-c2ccccc2)nc1-c1ccc(OCc2ccccc2)cc1)c1ccc(Cl)cc1
3. COc1ccc2c(c1)c(CC(=O)O)c(C)n2C(=O)c1ccc(Cl)cc1 [INDOMETHACIN]
4. Clc1ccc(-c2cc(-c3cn(-c4ccccc4)nc3-c3ccc(OCc4ccccc4)cc3)on2)cc1

A)
["Toxic", "Non-Toxic", "Toxic", "Toxic"]

###

test: Hepatotoxicity in rat assessed as effect on portal veins at 50 mg/kg by hematoxylin and eosin staining based assay; assay type: toxicity, organism-based; settings: in vivo
EXPERIMENTAL_READOUT: Activity

INSERT INTO results (compound, experimental_value) VALUES
  ('O=C(/C=C/c1cn(-c2ccccc2)nc1-c1ccc(OCc2ccccc2)cc1)c1ccccc1', 'Non-Toxic'),
  ('Clc1ccc(-c2cc(-c3cn(-c4ccccc4)nc3-c3ccc(OCc4ccccc4)cc3)on2)cc1', 'Toxic'),
  ('N#CC1=C(N)OC(c2ccccc2)=CC1c1cn(-c2ccccc2)nc1-c1ccc(OCc2ccccc2)cc1 (centres undefined)', 'Toxic'),
  ('O=C(/C=C/c1cn(-c2ccccc2)nc1-c1ccc(OCc2ccccc2)cc1)c1ccc(Cl)cc1', 'Non-Toxic'),
  ('COc1ccc2c(c1)c(CC(=O)O)c(C)n2C(=O)c1ccc(Cl)cc1 [INDOMETHACIN]', 'Toxic'),
  ('Nc1nc(-c2ccccc2)cc(-c2cn(-c3ccccc3)nc2-c2ccc(OCc3ccccc3)cc2)n1', 'Toxic');

Okay, here is my list. What is Activity for each of these?
1. CC(=O)n1nc(-c2ccccc2)cc1-c1cn(-c2ccccc2)nc1-c1ccc(OCc2ccccc2)cc1
2. Cc1ccc(-c2cc(C(F)(F)F)nn2-c2ccc(S(N)(=O)=O)cc2)cc1 [CELECOXIB]
3. S=c1nc(-c2ccc(Cl)cc2)cc(-c2cn(-c3ccccc3)nc2-c2ccc(OCc3ccccc3)cc2)[nH]1

A)
1: Toxic; 2: Toxic; 3: Toxic

###

assay: Ulcerogenic activity in rat assessed as ulcer index at 50 mg/kg, sc qd for 4 days post 18 hrs fasting measured after 4 days; assay type: toxicity, organism-based; details: in vivo, 96 h
EXPERIMENTAL_READOUT: UI
One number for each entry.

For each of the items listed, what is its UI?
1. O=C(/C=C/c1cn(-c2ccccc2)nc1-c1ccc(OCc2ccccc2)cc1)c1ccc(Cl)cc1
2. S=c1nc(-c2ccc(Cl)cc2)cc(-c2cn(-c3ccccc3)nc2-c2ccc(OCc3ccccc3)cc2)[nH]1
3. CC(=O)n1nc(-c2ccccc2)cc1-c1cn(-c2ccccc2)nc1-c1ccc(OCc2ccccc2)cc1
4. Cc1ccc(-c2cc(C(F)(F)F)nn2-c2ccc(S(N)(=O)=O)cc2)cc1 [CELECOXIB]
5. O=C(/C=C/c1cn(-c2ccccc2)nc1-c1ccc(OCc2ccccc2)cc1)c1ccccc1
6. Nc1nc(-c2ccccc2)cc(-c2cn(-c3ccccc3)nc2-c2ccc(OCc3ccccc3)cc2)n1
7. COc1ccc2c(c1)c(CC(=O)O)c(C)n2C(=O)c1ccc(Cl)cc1 [INDOMETHACIN]
8. Clc1ccc(-c2cc(-c3cn(-c4ccccc4)nc3-c3ccc(OCc4ccccc4)cc3)on2)cc1

A)
1: 2.4; 2: 6.4; 3: 6; 4: 3.2; 5: 2.8; 6: 3.2; 7: 17.6; 8: 8.4

Q) Supply UI value. Item: N#CC1=C(N)OC(c2ccccc2)=CC1c1cn(-c2ccccc2)nc1-c1ccc(OCc2ccccc2)cc1 (centres undefined)
A) 5.2

###

species: Homo sapiens; assay: Selectivity index, ratio of IC50 for human recombinant COX1 to IC50 for human recombinant COX2 using arachidonic acid as substrate
Answer each item with its documented Ratio IC50.
Give bare numbers.

INSERT INTO assay_data (compound, experimental_readout, experimental_value) VALUES
  ('Clc1ccc(-c2cc(-c3cn(-c4ccccc4)nc3-c3ccc(OCc4ccccc4)cc3)on2)cc1', 'Ratio IC50', 2.31),
  ('Nc1nc(-c2ccc(Cl)cc2)cc(-c2cn(-c3ccccc3)nc2-c2ccc(OCc3ccccc3)cc2)n1', 'Ratio IC50', 0.15),
  ('CC(=O)n1nc(-c2ccccc2)cc1-c1cn(-c2ccccc2)nc1-c1ccc(OCc2ccccc2)cc1', 'Ratio IC50', 6.74);

// each listed compound needs a value for Ratio IC50
1. Nc1nc(-c2ccccc2)cc(-c2cn(-c3ccccc3)nc2-c2ccc(OCc3ccccc3)cc2)n1
2. CC(=O)n1nc(-c2ccc(Cl)cc2)cc1-c1cn(-c2ccccc2)nc1-c1ccc(OCc2ccccc2)cc1
3. O=C(/C=C/c1cn(-c2ccccc2)nc1-c1ccc(OCc2ccccc2)cc1)c1ccccc1

A)
[5.89, 0.975, 8.22]

Hey, quick one: what's Ratio IC50 for each of these?
1. N#CC1=C(N)OC(c2ccccc2)=CC1c1cn(-c2ccccc2)nc1-c1ccc(OCc2ccccc2)cc1 (stereo not drawn)
2. NC(=S)n1nc(-c2ccccc2)cc1-c1cn(-c2ccccc2)nc1-c1ccc(OCc2ccccc2)cc1

A)
5.58
1
